Give measured T/C for each item. Keep answers brief.
# System: L1210 leukemia ip in BDF1 mice, survival T/C
# assay method text: NCI In Vivo Anticancer Drug Screen. Data for tumor model L1210 Leukemia (intraperitoneal) in B6D2F1 (BDF1) mice
# condition notes: endpoint: mean survival time; dose: 50.0 mg/kg/injection; schedule: Q04DX002 (ip); vehicle: saline with Tween-80; higher = longer survival
Toxic doses and inconclusive results are not listed.

Ask | Can you look up the measured T/C of "CCOC(=O)/C=C/Sc1ccccc1" for me?
Reply | 91 % of control

Ask | Please answer likewise for "CSC1SCCCS1"
Reply | 88 % of control

Ask | Please answer likewise for "Cc1cc2ccccc2cc1C"
Reply | 101 % of control

Ask | Please answer likewise for "Cc1nc(N)nc(N)c1Cc1ccc(N=[N+]=[N-])cc1"
Reply | 113 % of control

Ask | Please answer likewise for CCCCN1C(=O)N(c2ccc(OCC)cc2)C2N(CCCC)C1C(C)(C)C2(C)C (stereo unspecified)
Reply | 118 % of control

Ask | Please answer likewise for CCP1CCC(=NNC(N)=S)CC1 (stereo unspecified)
Reply | 93 % of control

Just for reference, PubChem BioAssay AID248 is where these values come from.
